Entries and their Viability of Cells (% of Control)
# Tested on: MCF-7 breast cancer cells
# test.name: Cell viability (MTT) assay, MCF-7
# Type: cell-based
# measurement.conditions: 100 µM

[[record]]
smiles_entry = "C[C@H](CC(=O)C[C@@H](C)[C@H]1C[C@H](O)[C@@]2(C)C3=C(C(=O)C[C@]12C)[C@@]1(C)CCC(=O)C(C)(C)[C@@H]1C[C@@H]3O)C(=O)NCCc1ccc(Cl)cc1"
measured_value = "102.9 ± 3.8 % of Control"

[[record]]
smiles_entry = "Cc1ccc(NC(=O)[C@H](C)CC(=O)C[C@@H](C)[C@H]2C[C@H](O)[C@@]3(C)C4=C(C(=O)C[C@]23C)[C@@]2(C)CCC(=O)C(C)(C)[C@@H]2C[C@@H]4O)cc1"
measured_value = "78.7 ± 3.9 % of Control"

[[record]]
smiles_entry = "Cc1ccc(CNC(=O)[C@H](C)CC(=O)C[C@@H](C)[C@H]2C[C@H](O)[C@@]3(C)C4=C(C(=O)C[C@]23C)[C@@]2(C)CCC(=O)C(C)(C)[C@@H]2C[C@@H]4O)cc1"
measured_value = "99.5 ± 1.0 % of Control"


Next, consider the following compound.
Input: Report Viability of Cells (% of Control) for `CCCCNC(=O)[C@H](C)CC(=O)C[C@@H](C)[C@H]1C[C@H](O)[C@@]2(C)C3=C(C(=O)C[C@]12C)[C@@]1(C)CCC(=O)C(C)(C)[C@@H]1C[C@@H]3O`
Output: 78.7 ± 3.4 % of Control
